Data origin, for the record: paper PMC5540273

Overview of reported %Inh across a group of molecules:
# Tested on: PIK4CB;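 note: KINOMEscan kinase panel screen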
# Construct: gene PI4KB
# Condition Notes: concentration: 1 μM,replicates: in singlicate; n = 1
Endpoint Label: %Inh

>>> recorded_result("CN(c1ccc2c(c1)nc(NCc1ccc(F)cc1)n2C)c1ccnc(Nc2ccc(CS(C)(=O)=O)cc2)n1.Cl")
"0%"
>>> recorded_result("COC(=O)Nc1nc2cc(Oc3ccc(NC(=O)Nc4cc(C(F)(F)F)ccc4Cl)cc3)ccc2[nH]1.Cl")
"0%"
>>> recorded_result("Cn1ccc2ncnc(Oc3ccc(NC(=O)Nc4cncc(C(F)(F)F)c4)c(Cl)c3)c21")
"0%"
>>> recorded_result("Cc1n[nH]c2cc(Nc3ccnc(Nc4cccc(CN5CCOCC5)c4)n3)ccc12")
"81%"
>>> recorded_result("COC(=O)c1cccc(NC(=O)NC2CCN(c3ccnc(NCc4ccc(F)cc4)n3)CC2)c1")
"0%"
>>> recorded_result("CCCC(=O)Nc1n[nH]c2ncccc12")
"12%"
>>> recorded_result("C[C@@H](Oc1cc(-n2cnc3cc(-c4ccncc4)ccc32)sc1C(N)=O)c1ccccc1Cl")
"0%"
>>> recorded_result("Cn1ccc2ncnc(Oc3ccc(NC(=O)Nc4cccc(C(F)(F)F)c4)c(F)c3)c21")
"0%"
>>> recorded_result("Cl.Cl.NC[C@H](CC1CCCCC1)NC(=O)c1ccc(-c2ccnc3[nH]ccc23)s1")
"0%"
>>> recorded_result("CC(=O)c1c(-c2ccncc2)[nH]c(-c2ccncc2)c1C")
"0%"
>>> recorded_result("CN(c1cccc(CNc2nc(Nc3ccc4c(c3)CC(=O)N4)ncc2C(F)(F)F)c1)S(C)(=O)=O")
"0%"
>>> recorded_result("O=C(Nc1ccccc1)c1cccc(Oc2ccc3nccn3n2)c1")
"68%"
>>> recorded_result("CNC(=O)c1ccccc1Nc1nc(Nc2cccc(CS(C)(=O)=O)c2)ncc1C.O=CO")
"12%"
>>> recorded_result("CC(C)S(=O)(=O)N1CCN(Cc2ccc3c(c2)nc(NC(=O)c2ccsc2)n3C[C@H](O)c2ccccc2)CC1")
"0%"
>>> recorded_result("C[C@@H]1CNc2c(sc3ccc4nc(-c5ccc(O)cc5)ccc4c23)C(=O)N1")
"0%"
>>> recorded_result("CSc1nccc(-c2c(-c3ccc(F)cc3)ncn2CCCN2CCOCC2)n1.Cl")
"5%"
>>> recorded_result("CN1CCN(CCNc2nc3cc(Oc4ccc(NC(=O)Nc5cc(C(F)(F)F)ccc5F)cc4)ccc3[nH]2)CC1.Cl.Cl")
"0%"
>>> recorded_result("COc1cc2c(Nc3ccc(NC(=O)c4ccccc4)cc3)ncnc2cc1OCCCN1CCOCC1")
"0%"
>>> recorded_result("CCNCC(Cc1ccccc1)NC(=O)c1cc(Br)c(-c2ccnc3[nH]ccc23)s1.Cl.Cl (stereo not drawn)")
"12%"
>>> recorded_result("Cc1ccc2c(-c3ccnc(Nc4ccc(C(F)(F)F)cc4)n3)cnn2n1")
"33%"
>>> recorded_result("N#Cc1cccc(C(=O)NC2CCN(c3ccnc(Nc4ccc(F)cc4)n3)C2)c1 (stereo not drawn)")
"0%"
>>> recorded_result("C[C@@H](Oc1cc(-n2cnc3cc(-c4cnn(C)c4)ccc32)sc1C(N)=O)c1ccccc1Cl")
"0%"
>>> recorded_result("CC(=O)Nc1ccc(-c2cc3ncnc(SCC(=O)O)c3s2)cc1")
"0%"
>>> recorded_result("CN(c1ccccc1CNc1nc(Nc2ccc3c(c2)CC(=O)N3)ncc1C(F)(F)F)S(C)(=O)=O")
"0%"
>>> recorded_result("Cn1cc(-c2cccc3c(N)c(C(N)=O)nnc23)cn1")
"16%"
>>> recorded_result("COc1cccc(C2=C(Nc3cccc(Cl)c3)C(=O)NC2=O)c1")
"10%"
>>> recorded_result("O=C(NOCC1CC1)c1cc(Br)c(F)c(F)c1Nc1ccc(I)cc1Cl")
"0%"
